- Experimental protocol: Oral bioavailability in overnight fasted cynomolgus monkey at 10 mg/kg administered as suspension of crystalline free base
- Type: ADME, organism-based, Macaca fascicularis
- Conditions: in vivo
Value type: bioavailability

Summary for this compound, "N[C@@H]1c2cccnc2[C@H](OC(=O)N2CCC(n3c(=O)[nH]c4ncccc43)CC2)CC[C@H]1c1cccc(F)c1F" : bioavailability is 48%

###

- Experimental protocol: Plasma concentration in Harlan marmoset at 7 mg/kg, sc after 60 to 105 mins
- Format: ADME, organism-based, Callithrix jacchus
- Design: dose 7 mg/kg, route subcutaneous
- Conditions: in vivo
Value type: concentration

Form field concentration, entry "N[C@@H]1c2cccnc2[C@H](OC(=O)N2CCC(n3c(=O)[nH]c4ncccc43)CC2)CC[C@H]1c1cccc(F)c1F" : < 800 nM

###

- System tested: Cytochrome P450 2C9 (Homo sapiens)
- Sequence (P11712 whole entry): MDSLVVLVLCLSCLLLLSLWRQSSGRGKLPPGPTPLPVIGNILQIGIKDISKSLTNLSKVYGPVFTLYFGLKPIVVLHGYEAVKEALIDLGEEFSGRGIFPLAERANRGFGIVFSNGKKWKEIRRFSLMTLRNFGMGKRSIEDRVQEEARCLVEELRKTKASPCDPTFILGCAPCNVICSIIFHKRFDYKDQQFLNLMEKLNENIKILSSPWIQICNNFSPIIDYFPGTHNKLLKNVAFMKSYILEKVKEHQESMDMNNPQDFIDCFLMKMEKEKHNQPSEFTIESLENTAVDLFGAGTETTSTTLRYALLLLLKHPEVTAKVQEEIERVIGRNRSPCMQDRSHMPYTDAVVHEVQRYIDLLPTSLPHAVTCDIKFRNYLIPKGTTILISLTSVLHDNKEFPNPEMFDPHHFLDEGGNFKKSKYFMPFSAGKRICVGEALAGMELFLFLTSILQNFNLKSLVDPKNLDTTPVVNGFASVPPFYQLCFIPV
- Experimental protocol: Inhibition of human recombinant CYP2C9 using 7-methoxy-4-trifluoromethylcoumarin as substrate after 45 mins by fluorescence assay
Value type: IC50

Kindly note the recorded IC50 for N[C@@H]1c2cccnc2[C@H](OC(=O)N2CCC(n3c(=O)[nH]c4ncccc43)CC2)CC[C@H]1c1cccc(F)c1F [RIMEGEPANT] , which is ≥ 20 µM

###

- System tested: Cytochrome P450 2A6 (Homo sapiens)
- Sequence (P11509 whole entry): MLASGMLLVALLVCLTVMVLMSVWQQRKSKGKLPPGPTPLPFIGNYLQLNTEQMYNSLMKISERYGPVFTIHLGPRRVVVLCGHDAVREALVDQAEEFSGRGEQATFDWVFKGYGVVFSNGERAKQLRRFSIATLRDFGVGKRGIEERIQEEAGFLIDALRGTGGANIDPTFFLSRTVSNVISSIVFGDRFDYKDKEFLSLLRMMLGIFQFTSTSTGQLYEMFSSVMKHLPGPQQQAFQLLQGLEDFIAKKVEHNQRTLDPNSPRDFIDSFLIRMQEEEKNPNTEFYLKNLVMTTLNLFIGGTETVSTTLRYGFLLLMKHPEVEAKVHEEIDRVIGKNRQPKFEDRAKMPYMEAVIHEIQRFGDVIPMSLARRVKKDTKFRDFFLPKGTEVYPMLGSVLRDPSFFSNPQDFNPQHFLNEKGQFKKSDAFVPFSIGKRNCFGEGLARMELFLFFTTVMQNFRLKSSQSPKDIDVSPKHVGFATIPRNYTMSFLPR
- Experimental protocol: Inhibition of human recombinant CYP2A6 after 45 mins by fluorescence assay
Value type: IC50

The compound listed as "N[C@@H]1c2cccnc2[C@H](OC(=O)N2CCC(n3c(=O)[nH]c4ncccc43)CC2)CC[C@H]1c1cccc(F)c1F" has a reported IC50 of ≥ 20 µM

###

- Experimental protocol: Permeability of the compound at 100 uM at pH 5.5 after 4 hrs by PAMPA
- Assay type: ADME
- Conditions: read-out: permeability
Value type: Papp at 4 h, 100 µM

Input N[C@@H]1c2cccnc2[C@H](OC(=O)N2CCC(n3c(=O)[nH]c4ncccc43)CC2)CC[C@H]1c1cccc(F)c1F [RIMEGEPANT] . Output Papp at 4 h, 100 µM: 19 ×10⁻⁶ cm/s

###

- Experimental protocol: Aqueous solubility of the compound in crystalline form
- Assay type: physicochemical
Value type: solubility (µg/mL)
Kindly provide the numeric value in µg/mL only, without the unit symbol.

N[C@@H]1c2cccnc2[C@H](OC(=O)N2CCC(n3c(=O)[nH]c4ncccc43)CC2)CC[C@H]1c1cccc(F)c1F [RIMEGEPANT] yielded solubility of 50
